Biological target: D(3) dopamine receptor (Homo sapiens)
Test: qHTS of D3 Dopamine Receptor Antagonist: qHTS; note: % is set by controls: 0 for no effect and ±100 for the full control effect
Conditions: D3R cells, DiscoveRx beta-arrestin luminescence, antagonist mode; active compounds read low
The campaign covered roughly 360,000 compounds. About 9,100 (2.5%) were called active. Inconclusive results (about 4%) are left out. Many of the other results were omitted from the sample, so actives are more common in it than they were.
measurement.label: max response, negative = inhibition (%)
One number for each entry, in %.

# example entries with known answers
- molecule: "O=C(Nc1ccc(OCCO)cc1)c1csc([C@H]2C[C@H](O)[C@@H](CO)O2)n1"
  max response, negative = inhibition / %: -7.51
- molecule: "Cc1ccc(CN2CCN(Cc3cccc(C)n3)CC2CCO)cc1 (stereo not drawn)"
  max response, negative = inhibition / %: -24.5

// `Nc1nc2ncccn2c1-c1ccccc1` : max response, negative = inhibition value = -1.52
